meta.source: patent US20240010750A1

Examples of binders with documented function blocking activity [IC50 M], 2nd exp. follow.
Biological target: T1, human alpha2-Antiplasmin (human, UniProt P08697 40-491)
T1 sequence: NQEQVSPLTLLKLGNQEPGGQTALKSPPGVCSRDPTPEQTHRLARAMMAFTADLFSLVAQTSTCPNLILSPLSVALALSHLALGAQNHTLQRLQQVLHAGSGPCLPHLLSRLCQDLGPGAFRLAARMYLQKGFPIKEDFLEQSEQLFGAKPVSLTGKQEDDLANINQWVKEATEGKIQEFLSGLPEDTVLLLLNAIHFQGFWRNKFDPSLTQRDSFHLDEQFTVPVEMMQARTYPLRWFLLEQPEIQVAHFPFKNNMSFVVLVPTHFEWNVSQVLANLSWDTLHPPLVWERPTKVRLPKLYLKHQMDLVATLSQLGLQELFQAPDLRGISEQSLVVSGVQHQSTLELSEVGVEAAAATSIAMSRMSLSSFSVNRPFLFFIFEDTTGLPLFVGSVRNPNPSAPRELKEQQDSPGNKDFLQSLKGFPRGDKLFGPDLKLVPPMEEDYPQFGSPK
Test: cell-based or functional assay
# unit: nM | format: bare number

binder: TPP-14293 hIgG1 (antibody, V domains shown) VH: EVQLLESGGGLVQPGGSLRLSCAASGFTFDDYAMSWVRQAPGKGLEWVSAIGTGGGTYYADSVKGRFTISRDNSKNTLYLQMNSLRAEDTAVYYCDREYYDSSGYYHLDYWGQGTLVTVSS VL: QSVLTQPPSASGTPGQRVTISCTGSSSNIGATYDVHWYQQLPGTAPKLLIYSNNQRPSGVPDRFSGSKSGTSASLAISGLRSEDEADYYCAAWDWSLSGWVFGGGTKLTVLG
assay-value: 48
//
binder: TPP-14313 hIgG1 (antibody, V domains shown, Human IgG1 lambda) VH: EVQLLESGGGLVQPGGSLRLSCAASGFTFDDYAMSWVRQAPGKGLEWVSAIGTGGGTYYADSVKGRFTISRDNSKNTLYLQMNSLRAEDTAVYYCAREYYDSSGYYHLVYWGQGTLVTVSS VL: QSVLTQPPSASGTPGQRVTISCTGSSSNIGATYDVHWYQQLPGTAPKLLIYSNNQRPSGVPDRFSGSKSGTSASLAISGLRSEDEADYYCAAWDWSLSGWVFGGGTKLTVL
assay-value: 20
//
binder: TPP-14318 hIgG1 (antibody, V domains shown) VH: EVQLLESGGGLVQPGGSLRLSCAASGFTFDDYAMSWVRQAPGKGLEWVSAIGTGGGTYYADSVKGRFTISRDNSKNTLYLQMNSLRAEDTAVYYCAREYYDSSGYYHLEYWGQGTLVTVSS VL: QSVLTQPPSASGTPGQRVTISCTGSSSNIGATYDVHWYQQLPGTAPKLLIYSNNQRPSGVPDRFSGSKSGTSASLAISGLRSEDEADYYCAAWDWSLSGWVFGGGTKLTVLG
assay-value: 25
//
binder: TPP-14303 hIgG1 (antibody, V domains shown) VH: EVQLLESGGGLVQPGGSLRLSCAASGFTFDDYAMSWVRQAPGKGLEWVSAIGTGGGTYYADSVKGRFTISRDNSKNTLYLQMNSLRAEDTAVYYCAREDYDSSGYYHLDYWGQGTLVTVSS VL: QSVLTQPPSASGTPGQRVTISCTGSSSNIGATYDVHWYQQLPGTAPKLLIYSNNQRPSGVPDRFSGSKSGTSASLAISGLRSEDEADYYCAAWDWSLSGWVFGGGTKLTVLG
assay-value: 89
//
binder: TPP-14298 hIgG1 (antibody, V domains shown) VH: EVQLLESGGGLVQPGGSLRLSCAASGFTFDDYAMSWVRQAPGKGLEWVSAIGTGGGTYYADSVKGRFTISRDNSKNTLYLQMNSLRAEDTAVYYCASEYYDSSGYYHLDYWGQGTLVTVSS VL: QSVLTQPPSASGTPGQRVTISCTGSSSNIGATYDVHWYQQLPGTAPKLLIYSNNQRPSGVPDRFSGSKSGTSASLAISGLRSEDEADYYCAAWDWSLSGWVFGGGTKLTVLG
assay-value: 37

Sure, the documented function blocking activity [IC50 M], 2nd exp. for TPP-14305 hIgG1 (antibody, V domains shown) VH: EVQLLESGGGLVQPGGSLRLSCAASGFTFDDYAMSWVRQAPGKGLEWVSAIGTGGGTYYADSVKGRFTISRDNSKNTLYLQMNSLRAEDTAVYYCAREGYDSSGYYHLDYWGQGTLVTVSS VL: QSVLTQPPSASGTPGQRVTISCTGSSSNIGATYDVHWYQQLPGTAPKLLIYSNNQRPSGVPDRFSGSKSGTSASLAISGLRSEDEADYYCWAWDDSLSGWVFGGGTKLTVLG is 69

Sure, the documented function blocking activity [IC50 M], 2nd exp. for TPP-14323 hIgG1 (antibody, V domains shown) VH: EVQLLESGGGLVQPGGSLRLSCAASGFTFDDYAMSWVRQAPGKGLEWVSAIGTGGGTYYADSVKGRFTISRDNSKNTLYLQMNSLRAEDTAVYYCAREYYDSSGYYHLTYWGQGTLVTVSS VL: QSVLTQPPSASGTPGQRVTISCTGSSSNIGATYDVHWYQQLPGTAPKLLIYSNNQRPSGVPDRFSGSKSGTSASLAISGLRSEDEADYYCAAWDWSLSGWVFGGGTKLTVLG is 20

Sure, the documented function blocking activity [IC50 M], 2nd exp. for TPP-14314 hIgG1 (antibody, V domains shown, Human IgG1 lambda) VH: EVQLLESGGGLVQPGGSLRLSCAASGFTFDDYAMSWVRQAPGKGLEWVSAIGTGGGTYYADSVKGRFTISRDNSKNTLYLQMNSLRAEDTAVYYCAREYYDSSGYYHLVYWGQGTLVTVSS VL: QSVLTQPPSASGTPGQRVTISCTGSSSNIGATYDVHWYQQLPGTAPKLLIYSNNQRPSGVPDRFSGSKSGTSASLAISGLRSEDEADYYCAAWDVSLSGWVFGGGTKLTVL is 73

Sure, the documented function blocking activity [IC50 M], 2nd exp. for TPP-14308 hIgG1 (antibody, V domains shown, starting point of the germlining) VH: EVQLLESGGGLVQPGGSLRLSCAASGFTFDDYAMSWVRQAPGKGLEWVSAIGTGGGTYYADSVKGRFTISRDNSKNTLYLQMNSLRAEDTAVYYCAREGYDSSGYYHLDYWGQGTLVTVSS VL: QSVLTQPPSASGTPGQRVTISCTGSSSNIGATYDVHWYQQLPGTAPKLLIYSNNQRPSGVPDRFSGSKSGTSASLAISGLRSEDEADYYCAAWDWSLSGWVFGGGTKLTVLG is 30
